Origin of measurements: paper PMC6200808

system: TSM (Thymidylate Synthase mRNA region) (RNA, mRNA element) CCCCCCCGCCGCGCCAUGCCUGUGGCCGGUCGG; conditions: column head extracted as (M), μ lost
quantity: Dissociation Constants (M)

Some molecules with recorded Dissociation Constants:
# smiles str, Dissociation Constants (M)
measured = [
    ("NC[C@@H]1O[C@H](O[C@H]2[C@@H](O)[C@H](O[C@@H]3[C@@H](O)[C@H](N)C[C@H](N)[C@H]3O[C@H]3O[C@H](CO)[C@@H](O)[C@H](O)[C@H]3N)O[C@@H]2CO)[C@H](N)[C@@H](O)[C@@H]1O", "6.29e-06"),
    ("NC[C@H]1O[C@H](O[C@H]2[C@H](O)[C@@H](O[C@H]3O[C@H](CO)[C@@H](O)[C@H](N)[C@H]3O)[C@H](N)C[C@@H]2N)[C@H](N)[C@@H](O)[C@@H]1O", "6.5e-06"),
    ("NC[C@H]1O[C@H](O[C@H]2[C@H](O)[C@@H](O[C@H]3O[C@H](CO)[C@@H](O)[C@H](N)[C@H]3O)[C@H](N)C[C@@H]2N)[C@H](N)C[C@@H]1O", "5.75e-06"),
]

[1] NC[C@@H]1O[C@H](O[C@H]2[C@@H](O)[C@H](O[C@@H]3[C@@H](O)[C@H](N)C[C@H](N)[C@H]3O[C@H]3O[C@H](CN)[C@@H](O)[C@H](O)[C@H]3N)O[C@@H]2CO)[C@H](N)[C@@H](O)[C@@H]1O
[2] NC[C@H]1O[C@H](O[C@H]2[C@H](O)[C@@H](O[C@H]3O[C@H](CO)[C@@H](O)[C@H](N)[C@H]3O)[C@H](N)C[C@@H]2N)[C@H](O)[C@@H](O)[C@@H]1O
// compare: 1 vs 2 , metric Dissociation Constants, want the smaller Answer = label.
1
